molecular target: T1, recombinant antigen of the extracellular region of CD47 (Sino Biological, Cat: 12283-H08H) (human, UniProt Q08722 19-139); test: Fortebio BLI, antibody on AHC sensor, CD47 extracellular region 100 nM;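 also: antibody held on the sensor through anti-human Fc capture, CD47 antigen in solution, association and dissociation phases each lasting 300 s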
T1 construct: extracellular domain; also called recombinant CD47 extracellular region; CD47 recombinant protein
T1 sequence (Q08722 19-139 limits assumed): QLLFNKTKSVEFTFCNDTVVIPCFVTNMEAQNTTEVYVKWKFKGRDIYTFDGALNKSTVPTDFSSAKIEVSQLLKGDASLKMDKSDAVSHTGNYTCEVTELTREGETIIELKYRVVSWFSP
// kon lookup, one value per entry
The response must be a number in M⁻¹ s⁻¹ with no trailing unit.

binder | units_label | value_measured
hz140-Hm11/hz182-L (antibody, V domains shown) VH: QVQLVQSGAEVKKPGASVKVSCKASGYKFTNYVMSWVRQAPGQRLEWMGYINPYNDAIKYNEKFTGRVTITRDTSASTAYMELSSLRSEDTAVYYCAREGDFYANYGRLGFAYWGQGTLVTVSS VL: DIQMTQSPSSLSASVGDRVTITCRASQDISNYLNWYQQKPGKAPKLLLYYTSRLHSGVPSRFSGSGSGTDYTLTISSLQPEDFATYFCQQGAGRPYTFGGGTKVEIK | M⁻¹ s⁻¹ | 260000
hz140-Hm7/hz182-L (antibody, V domains shown) VH: QVQLVQSGAEVKKPGASVKVSCKASGYKFTNYVMHWVRQAPGQRLEWMGYINPYNDGIKYNEKFQGRVTITRDTSASTAYMELSSLRSEDTAVYYCAREGDFYANYGRLGFAYWGQGTLVTVSS VL: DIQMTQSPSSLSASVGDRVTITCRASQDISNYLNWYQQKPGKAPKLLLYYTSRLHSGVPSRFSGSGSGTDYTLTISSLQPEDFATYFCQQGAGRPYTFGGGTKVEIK | M⁻¹ s⁻¹ | 124000

We now examine a further binder.
In: Please report the recorded kon for hz140-Hm13/hz182-L (antibody, V domains shown) VH: EVQLVQSGAEVKKPGASVKVSCKASGYKFTNYVMSWVRQAPGQRLEWMGYINPYNDAIKYNEKFTGRVTITRDTSASTAYMELSSLRSEDTAVYYCAREGDFYANYGRLGFAYWGQGTLVTVSS VL: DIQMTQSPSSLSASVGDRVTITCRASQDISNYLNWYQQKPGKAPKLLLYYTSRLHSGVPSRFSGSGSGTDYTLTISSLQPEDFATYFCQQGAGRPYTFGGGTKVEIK .
Out: 263000
